target: Cytochrome P450 3A4 (Homo sapiens); test: Cytochrome P450 Family 3 Subfamily A Member 4 (CYP3A4) small molecule antagonists: luciferase reporter qHTS assay (AID 1671201); details: P450-Glo CYP3A4 enzyme, luciferin luminescence, 1 h; series mostly up to 115 µM; also: nearly all actives have a fitted effect of over 50% in size
Records with an inconclusive call do not appear. The source made the active and inactive calls. Calls follow the shape of the dose curve; as a rule, active = well fitted inhibition curve with a large enough effect in the repeat runs; inconclusive = weak or mixed curves; inactive = no such curve, though single readings can be large or run the other way.
Field 'call' accepts active, inactive

CCCCCCCCOc1ccc(C(=O)c2ccccc2)c(O)c1    inactive
C=C(C)C(N)=O    inactive
C=CC(=O)NC(C)(C)CS(=O)(=O)O    inactive
CC1(C)O[C@@H]2[C@@H](CO[C@@]3(COS(N)(=O)=O)OC(C)(C)O[C@@H]23)O1    inactive
COc1ccccc1O    inactive
COc1cc(O)c(C(=O)c2ccccc2)cc1S(=O)(=O)O    inactive
CCCCNC(=O)NS(=O)(=O)c1ccc(N)cc1    inactive
CCN(CC)CCOC(=O)c1ccc(N)cc1    inactive
CCCCCCCC(=O)OCC(O)CO (configuration not stated)    inactive
CC(=O)CCC(C)C    inactive

Exercise: Per the assay record, what outcome was assigned to `COC(=O)c1ccc(O)cc1` ?
Key: inactive

Exercise: Per the assay record, what outcome was assigned to `COc1ccccc1NC(=O)CC(C)=O` ?
Key: active

Exercise: Per the assay record, what outcome was assigned to `O=C(OCc1ccccc1)c1ccccc1` ?
Key: inactive

Exercise: Per the assay record, what outcome was assigned to `CN(C)C=O` ?
Key: inactive

Exercise: Per the assay record, what outcome was assigned to `NC(=O)N/N=C/c1ccc([N+](=O)[O-])o1` ?
Key: inactive
